Consider the following compounds; for each one, report its pIC50.
biological target: Proteinase-activated receptor 1 (Homo sapiens); assay: Displacement of [3H]haTRAP from PAR1 in human platelet membrane
Remember, pIC50 is on a log scale: it is -log10 of the molar concentration.

Q) # get_value(readout= pIC50, system= Proteinase-activated receptor 1 (Homo sapiens)) for C[C@H]1OC(=O)[C@@H]2C[C@@H]3C[C@H](O)CC[C@H]3[C@H](/C=C/c3ccc(-c4ccccc4F)cn3)[C@H]12
A) 7.14

Q) State its pIC50 on Proteinase-activated receptor 1 (Homo sapiens): C[C@H]1OC(=O)[C@@H]2C[C@@H]3CC(F)(F)CC[C@H]3[C@H](/C=C/c3ccc(-c4cccc(C(F)(F)F)c4)cn3)[C@H]12
A) 7.43

Q) Request - read-out pIC50 | tested on Proteinase-activated receptor 1 (Homo sapiens) | compound C[C@H]1OC(=O)[C@@H]2C[C@@H]3C[C@H](O)CC[C@H]3[C@H](/C=C/c3ccc(-c4cccc(C(F)(F)F)c4)cn3)[C@H]12
A) 7.77

Q) Param readout= pIC50; system= Proteinase-activated receptor 1 (Homo sapiens); entry= C[C@H]1OC(=O)[C@@H]2C[C@H]3[C@@H](CCC[C@@H]3O)[C@H](/C=C/c3ccc(-c4cccc(C(F)(F)F)c4)cn3)[C@H]12 ; returns value.
A) 7.39

Q) Lab request: please report pIC50 under test system Proteinase-activated receptor 1 (Homo sapiens) for C[C@H]1OC(=O)[C@@H]2C[C@@H]3C[C@H](O)CC[C@H]3[C@H](/C=C/c3ccc(-c4cccc(Cl)c4Cl)cn3)[C@H]12
A) 7.78

Q) Form field - read-out: pIC50; system: Proteinase-activated receptor 1 (Homo sapiens); submitted item: C[C@H]1OC(=O)[C@@H]2C[C@@H]3CC[C@@H](O)C[C@H]3[C@H](/C=C/c3ccc(-c4cccc(C(F)(F)F)c4)cn3)[C@H]12
A) 6.32

* * *

test: Plasma concentration in cynomolgus monkey at 24 hrs; format: ADME, organism-based, Macaca fascicularis
recorded_metric: concentration at 24 h
# number then unit; no other words

Q) Reported concentration at 24 h for C[C@H]1OC(=O)[C@@H]2C[C@H]3[C@@H](CCC[C@@H]3O)[C@H](/C=C/c3ccc(-c4cccc(C(F)(F)F)c4)cn3)[C@H]12 : what is it?
A) 160 ng/mL

* * *

assay: Bioavailability in cynomolgus monkey; assay type: ADME, organism-based, Macaca fascicularis; conditions: in vivo
recorded_metric: bioavailability (%)
Just the number please, in %, no unit attached.

Q) Record request: bioavailability value, item C[C@H]1OC(=O)[C@@H]2C[C@@H]3C[C@H](O)CC[C@H]3[C@H](/C=C/c3ccc(-c4cccc(C(F)(F)F)c4)cn3)[C@H]12
A) 89

* * *

target: Proteinase-activated receptor 1 (Homo sapiens, UniProt P25116); experiment: Displacement of [3H]haTRAP from PAR1 in human platelet membrane
Sequence (P25116 whole entry): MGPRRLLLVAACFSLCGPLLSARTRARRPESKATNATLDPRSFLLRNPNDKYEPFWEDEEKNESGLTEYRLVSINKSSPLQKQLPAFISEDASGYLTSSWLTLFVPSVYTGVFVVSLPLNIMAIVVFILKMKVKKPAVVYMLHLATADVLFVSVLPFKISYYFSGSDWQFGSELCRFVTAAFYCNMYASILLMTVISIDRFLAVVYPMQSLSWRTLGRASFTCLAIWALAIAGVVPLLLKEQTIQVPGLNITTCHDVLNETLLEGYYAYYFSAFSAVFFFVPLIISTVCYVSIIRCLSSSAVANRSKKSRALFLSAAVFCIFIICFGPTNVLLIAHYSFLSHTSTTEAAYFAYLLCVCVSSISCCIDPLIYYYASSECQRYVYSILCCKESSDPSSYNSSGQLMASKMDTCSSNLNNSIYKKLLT
Provide the reported IC50 of each item.

Q) Would you kindly share the measured IC50 for C[C@H]1OC(=O)[C@@H]2C[C@@H]3C[C@H](O)CC[C@H]3[C@H](/C=C/c3ccc(-c4cccc(Cl)c4)cn3)[C@H]12 ?
A) 38.5 nM

Q) Requested field: IC50. Item: C[C@H]1OC(=O)[C@@H]2C[C@@H]3C[C@@H](O)CC[C@H]3[C@H](/C=C/c3ccc(-c4cccc(C(F)(F)F)c4)cn3)[C@H]12
A) 23 nM

Q) Requested read-out: IC50. Entry: C[C@H]1OC(=O)[C@@H]2C[C@H]3[C@@H](CCC[C@H]3O)[C@H](/C=C/c3ccc(-c4cccc(C(F)(F)F)c4)cn3)[C@H]12
A) 28 nM

Q) Field request: IC50 | item: Cc1ccc(-c2ccc(/C=C/[C@H]3[C@@H]4CC[C@@H](O)C[C@H]4C[C@H]4C(=O)O[C@H](C)[C@@H]34)nc2)cc1
A) 1370 nM

Q) Find the recorded IC50 belonging to C[C@H]1OC(=O)[C@@H]2C[C@@H]3C[C@H](O)CC[C@H]3[C@H](/C=C/c3ccc(-c4ccc(F)cc4)cn3)[C@H]12 and report it.
A) 829 nM

Q) Query: IC50; subject: Cc1ccccc1-c1ccc(/C=C/[C@H]2[C@@H]3CC[C@@H](O)C[C@H]3C[C@H]3C(=O)O[C@H](C)[C@@H]23)nc1
A) 70 nM

Q) Please report the recorded IC50 for Cc1cccc(-c2ccc(/C=C/[C@H]3[C@@H]4CCC(F)(F)C[C@H]4C[C@H]4C(=O)O[C@H](C)[C@@H]34)nc2)c1 .
A) 80 nM

Q) Look up IC50 for this compound: C[C@H]1OC(=O)[C@@H]2C[C@@H]3C[C@H](O)CC[C@H]3[C@H](/C=C/c3ccc(-c4cc(Cl)ccc4Cl)cn3)[C@H]12
A) 97 nM

Q) Recorded IC50 for C[C@H]1OC(=O)[C@@H]2C[C@@H]3CC(F)(F)CC[C@H]3[C@H](/C=C/c3ccc(-c4cccc(Cl)c4)cn3)[C@H]12 , please?
A) 12 nM

Q) Entry C[C@H]1OC(=O)[C@@H]2C[C@@H]3CC(F)(F)CC[C@H]3[C@H](/C=C/c3ccc(-c4ccccc4F)cn3)[C@H]12 has what IC50?
A) 28 nM

The reported numbers originate from ChEMBL document CHEMBL1139225.
